biological target: recombinant rat PAI-1 (Rattus norvegicus, UniProt P20961); assay: biochemical; settings: read-out: Inhibition Rate of PAI-1 Activity (%)
Sequence (P20961 24-402): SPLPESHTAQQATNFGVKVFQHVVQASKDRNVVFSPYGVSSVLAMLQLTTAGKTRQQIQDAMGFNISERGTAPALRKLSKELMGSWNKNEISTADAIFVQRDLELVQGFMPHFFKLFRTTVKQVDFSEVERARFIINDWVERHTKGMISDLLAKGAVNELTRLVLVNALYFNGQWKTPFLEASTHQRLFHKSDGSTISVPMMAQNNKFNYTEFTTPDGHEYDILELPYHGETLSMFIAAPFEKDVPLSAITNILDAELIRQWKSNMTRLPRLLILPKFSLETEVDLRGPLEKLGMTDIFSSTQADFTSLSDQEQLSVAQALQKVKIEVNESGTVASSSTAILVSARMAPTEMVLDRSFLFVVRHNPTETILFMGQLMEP
The threshold is inclusive: inhibition at 1 µM of exactly 10% counts as True; values below receive False.

compound: CC(C)(C)c1ccc(Oc2cccc(-c3ccc(OC(F)(F)F)cc3)c2CCC(=O)O)cc1 [Compound 94]
assigned_label: True
//
compound: CN(C)c1ccc(N(Cc2ccc(C(C)(C)C)cc2)C(=O)C(=O)O)cc1-c1ccc(OC(F)(F)F)cc1 [Compound 214]
assigned_label: False
//
compound: CC(C)(C)c1ccc(COc2ccc(-c3ccc(OC(F)(F)F)cc3)cc2CCC(=O)O)cc1 [Compound 5]
assigned_label: True
//
compound: CCCCCOc1ccc(-c2ccc(OC(F)(F)F)cc2)cc1N(CCCCc1ccccc1)C(=O)C(=O)O [Compound 226]
assigned_label: True
//
compound: CC(C)(C)c1ccc(Oc2ccc(Oc3ccc(OC(F)(F)F)cc3)cc2CCC(=O)O)cc1 [Compound 100]
assigned_label: False
//
compound: CC(C)(C)c1ccc(COc2c(CCC(=O)O)cccc2-c2ccc(OC(F)(F)F)cc2)cc1 [Compound 88]
assigned_label: False

Enquiry: For this compound, is measured inhibition at 1 µM 10% or higher? CC(C)c1ccc(Oc2ccc(CCC(=O)O)c(Oc3ccc(C(C)C)cc3)c2)cc1 [Compound 73]
Return: True

Enquiry: # bool: inhibition at 1 µM of Cc1ccc(N(Cc2ccc(C(C)(C)C)cc2)C(=O)C(=O)O)cc1-c1ccc(OC(F)(F)F)cc1 [Compound 176] >= 10%
Return: True

Enquiry: Could you please find out whether CCCCOc1ccc(-c2ccc(OC(F)(F)F)cc2)cc1N(CCCCc1ccccc1)C(=O)C(=O)O [Compound 231] has inhibition at 1 µM that meets 10% or exceeds it?
Return: True
